- Experimental Details: qHTS assay to identify small molecule antagonists of the estrogen receptor alpha (ER-alpha) signaling pathway using the BG1 cell line (AID 743080);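 note: BG1 cells stimulated with 17beta-estradiol alongside compound; nearly all actives have a fitted effect of over 25% in size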
- Run Parameters: BG1Luc4E2 ERE-luciferase antagonist mode, luminescence; series mostly up to 70.3 µM
Inconclusive results are not listed. Calls of active or inactive are those of the source. Calls come from the whole dose curve.
Possible outcomes: active, inactive

[
  {
    "Molecule": "CO/N=C(\\C(=O)N[C@@H]1C(=O)N2C(C(=O)[O-])=C(C[n+]3cccc4c3CCC4)CS[C@H]12)c1csc(N)n1",
    "Assigned Category": "inactive"
  },
  {
    "Molecule": "Nc1cc(Cl)c(NC2=NCCN2)c(Cl)c1",
    "Assigned Category": "inactive"
  },
  {
    "Molecule": "O=C1OC(O)C(C(Cl)Cl)=C1Cl (stereo unspecified)",
    "Assigned Category": "inactive"
  },
  {
    "Molecule": "CC12CCC(C1)C(C)(C)C2=O (stereo unspecified)",
    "Assigned Category": "inactive"
  },
  {
    "Molecule": "CCCCCCCC/C=C\\CCCCCCCC(=O)N(CCO)CCO",
    "Assigned Category": "active"
  },
  {
    "Molecule": "CCC(C)(C)c1ccc(CC(C)CN2C[C@@H](C)O[C@@H](C)C2)cc1 (stereo partly specified)",
    "Assigned Category": "active"
  }
]

====

- Experimental Details: A CellTox Green Cytotoxicity Assay to monitor cytotoxicity in HepG2 cells - 32 hour (AID 1224883); note: nearly all actives have a fitted effect of over 50% in size
- Run Parameters: CellTox Green fluorescence; series mostly up to 76.8 µM
Inconclusive results are not listed. Activity calls are given as the source filed them. Calls come from the whole dose curve; as a rule, active = well fitted activation curve with a large enough effect in the repeat runs; inconclusive = weak or mixed curves; inactive = flat fitted curve, though single readings scatter.
Possible outcomes: active, inactive

[
  {
    "Compound": "O=[N+]([O-])c1ccc(CO)cc1",
    "Assigned Category": "inactive"
  },
  {
    "Compound": "CN1CCN(c2ccccc2/C=C2\\SCCN(c3ccc(Cl)c(Cl)c3)C2=O)CC1",
    "Assigned Category": "active"
  },
  {
    "Compound": "CCCCCN=C(N)N/N=C/c1c[nH]c2ccc(OC)cc12",
    "Assigned Category": "active"
  },
  {
    "Compound": "COc1cc(/C=C/C(=O)CC(=O)/C=C/c2ccc(O)c(OC)c2)ccc1O",
    "Assigned Category": "active"
  },
  {
    "Compound": "CC1(C)[C@H]2CC[C@]1(C)C(=O)C2",
    "Assigned Category": "inactive"
  },
  {
    "Compound": "C1=CCCC1",
    "Assigned Category": "inactive"
  },
  {
    "Compound": "CCc1cccc(C)c1N(C(=O)C(=O)O)C(C)COC (stereo not drawn)",
    "Assigned Category": "inactive"
  },
  {
    "Compound": "Oc1ccc(Cl)cc1C1CCCC1",
    "Assigned Category": "active"
  },
  {
    "Compound": "Cc1cccc2c1ccc1ccccc12",
    "Assigned Category": "inactive"
  },
  {
    "Compound": "CN(C)CCOc1ccc(/C(=C(/CCCl)c2ccccc2)c2ccccc2)cc1",
    "Assigned Category": "active"
  },
  {
    "Compound": "Oc1cccc2c(O)cccc12",
    "Assigned Category": "inactive"
  },
  {
    "Compound": "CCSCC",
    "Assigned Category": "inactive"
  },
  {
    "Compound": "O=C1OC(=O)c2cc(-c3ccc4c(c3)C(=O)OC4=O)ccc21",
    "Assigned Category": "inactive"
  }
]
